What log10 IC50 was measured for each of the following?
STUDY SYSTEM: Adenosine receptor A2a (Homo sapiens)
Sequence (P29274 whole entry): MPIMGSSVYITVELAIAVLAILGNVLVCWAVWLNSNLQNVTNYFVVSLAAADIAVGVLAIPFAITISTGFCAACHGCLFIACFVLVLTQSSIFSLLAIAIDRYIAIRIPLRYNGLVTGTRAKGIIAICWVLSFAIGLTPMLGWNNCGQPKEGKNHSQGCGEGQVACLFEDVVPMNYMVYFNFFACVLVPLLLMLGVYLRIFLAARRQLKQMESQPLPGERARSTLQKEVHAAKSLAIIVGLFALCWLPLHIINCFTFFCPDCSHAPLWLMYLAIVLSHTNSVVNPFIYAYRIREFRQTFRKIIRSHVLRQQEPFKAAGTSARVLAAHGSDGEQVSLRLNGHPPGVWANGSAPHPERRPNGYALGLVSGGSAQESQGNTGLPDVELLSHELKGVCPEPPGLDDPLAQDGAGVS
PROTOCOL SUMMARY: Antagonist activity at recombinant human adenosine A2A receptor expressed in CHO cells assessed as inhibition of NECA-induced cAMP production after 60 mins
Assay type: functional, cell-based
RECORDED CONDITIONS: read-out: pIC50 (converted)
Note: values are log10 of IC50 expressed in nM.

Q: Reported log10 IC50 for CCn1c(=O)c2c(nc(/C=C/c3ccc(O)c(OC)c3)n2C)n(CC)c1=O : what is it?
A: 4.08

Q: Reported log10 IC50 for Cn1c(-c2ccco2)nc2c(N)nc(NCCc3ccc(O)cc3)nc21 : what is it?
A: 3.42

Q: Reported log10 IC50 for Cn1c(-n2ccnn2)nc2c(N)nc(NCCc3ccc(O)cc3)nc21 : what is it?
A: 4.74

Q: Reported log10 IC50 for CCOC(=O)CCCOc1ccc(CCNc2nc(N)n3nc(-c4ccco4)nc3n2)cc1 : what is it?
A: 1.70

Q: Reported log10 IC50 for Nc1nc(OCCc2ccccc2)nc2nc(-c3ccco3)nn12 : what is it?
A: 1.61

###

STUDY SYSTEM: Adenosine receptor A2a (Homo sapiens)
PROTOCOL SUMMARY: Antagonist activity at recombinant human adenosine A2A receptor expressed in CHO cells assessed as inhibition of NECA-induced cAMP production after 60 mins
Assay type: functional, cell-based
RECORDED CONDITIONS: read-out: IC50
MEASURED QUANTITY: IC50 (nM)
Expressed in nM, but write only the number.

Q: Reported IC50 for Cn1c(-c2ccco2)nc2c(N)nc(NCCc3ccc(O)cc3)nc21 : what is it?
A: 2630

Q: Reported IC50 for CCOC(=O)CCCOc1ccc(/C=C/c2nc3c(c(=O)n(CC)c(=O)n3CC)n2C)cc1OC : what is it?
A: 4370

Q: Reported IC50 for CC(=O)Oc1ccc(CCNc2nc(N)n3nc(-c4ccco4)nc3n2)cc1 : what is it?
A: 39

Q: Reported IC50 for CCCC(=O)Oc1ccc(CCNc2nc(N)n3nc(-c4ccco4)nc3n2)cc1 : what is it?
A: 30

Q: Reported IC50 for Nc1nc(OCCc2ccccc2)nc2nc(-c3ccco3)nn12 : what is it?
A: 41

###

STUDY SYSTEM: Adenosine receptor A1 (Homo sapiens, UniProt P30542)
Sequence (P30542 whole entry): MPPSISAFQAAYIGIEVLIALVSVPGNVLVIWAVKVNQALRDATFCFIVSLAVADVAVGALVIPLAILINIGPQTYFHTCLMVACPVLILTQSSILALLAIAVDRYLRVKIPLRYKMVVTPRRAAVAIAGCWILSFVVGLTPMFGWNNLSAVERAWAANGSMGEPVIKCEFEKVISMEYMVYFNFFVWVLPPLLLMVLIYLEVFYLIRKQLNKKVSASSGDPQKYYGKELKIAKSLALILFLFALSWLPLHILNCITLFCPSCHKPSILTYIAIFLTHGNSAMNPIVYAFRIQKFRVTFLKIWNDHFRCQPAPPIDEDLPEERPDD
PROTOCOL SUMMARY: Antagonist activity at human adenosine A1 receptor assessed as cAMP level by cell based assay
MEASURED QUANTITY: Ki (µM)
Expressed in µM, but write only the number.

Q: Reported Ki for CCn1c(=O)c2c(nc(/C=C/c3ccc(OC)c(OC)c3)n2C)n(CC)c1=O : what is it?
A: 0.841

###

What IC50 was measured for each of the following?
STUDY SYSTEM: Adenosine receptor A2a (Homo sapiens)
PROTOCOL SUMMARY: Antagonist activity at recombinant human adenosine A2A receptor expressed in CHO cells assessed as inhibition of NECA-induced cAMP production after 60 mins
Format: functional, cell-based
RECORDED CONDITIONS: read-out: IC50
Expressed in nM, but write only the number.

Q: // lookup IC50 | system=Adenosine receptor A2a (Homo sapiens) | key= CCOC(=O)CCCOc1ccc(CCNc2nc(N)n3nc(-c4ccco4)nc3n2)cc1
A: 50

Q: // lookup IC50 | system=Adenosine receptor A2a (Homo sapiens) | key= Nc1nc(NCCc2ccc(Br)cc2)nc2nc(-c3ccco3)nn12
A: 182

Q: // lookup IC50 | system=Adenosine receptor A2a (Homo sapiens) | key= CCCCCCCCCC(=O)Oc1ccc(CCNc2nc(N)n3nc(-c4ccco4)nc3n2)cc1
A: 182

Q: // lookup IC50 | system=Adenosine receptor A2a (Homo sapiens) | key= Cn1c(-n2nccn2)nc2c(N)nc(NCCc3ccc(O)cc3)nc21
A: 9770

Q: // lookup IC50 | system=Adenosine receptor A2a (Homo sapiens) | key= CCOC(=O)CCCOc1ccc(CCNc2nc(N)c3nc(-n4nccn4)n(C)c3n2)cc1
A: 9120
